System: HT29 colon
Assay: NCI-60 one-dose screen, 48 h (100 = growth as untreated, 0 = no growth, -100 = all killed)
Conditions: 10 µM unless noted
About 83,000 compounds went through this panel and 20% of them were active in at least one assay; those are over-represented in the sample as a whole.
// map growth to label using lower band: < 10%; central band: ≥ 10% and < 80%; upper band: ≥ 80%

compound	group
C#CCOc1cccc(-c2ncc3cc(NC(=O)CCl)ccc3n2)c1	lower band

Lab note: which band did `CNC(=O)c1cc(Oc2ccc3nc(NC(=O)Nc4ccc(Cl)c(Cl)c4)sc3c2)ccn1` land in?
central band

Lab note: which band did `O=C1NC(=C(Cl)Cl)/C(=N/S(=O)(=O)N2CCCCC2)N1` land in?
lower band

Lab note: which band did `NC(=S)N/N=C/c1cn(-c2ccccc2)nc1-c1cc2ccccc2oc1=O` land in?
central band

Lab note: which band did `Cc1ccc(-c2nc(C#N)c(S(=O)(=O)NCCO)o2)cc1` land in?
central band

Lab note: which band did CCn1cc(C(=O)N/N=C/c2ccc(Br)cc2)c(=O)c2cc(F)c(N3CCNC(C)C3)c(F)c21 (centres undefined) land in?
lower band

Lab note: which band did `COc1cccc(/C=C/C(=O)c2cc3c(N)c(C(=O)Nc4ccccc4C)sc3nc2C)c1` land in?
lower band

====

Test system: SR leukemia
Test: NCI-60 one-dose screen, 48 h (100 = growth as untreated, 0 = no growth, -100 = all killed)
Settings: 10 µM unless noted
The panel holds about 83,000 compounds, 20% with a hit somewhere; the sample as a whole holds those more often.
quantity_name: growth (%)
Use % as the unit, but write only the number.

Examples from the recorded data:
compound	numeric_result
C[Se]C(=O)CC1=C2C=C(F)C=CC2/C(=C\c2ccc(S(C)=O)cc2)C1C (stereo unspecified)	22.5
CC[C@]12C=CCN3CC[C@@]4(c5ccc(OC)cc5N(C)[C@H]4[C@@](O)(C(=O)OC)[C@@H]1OC(=O)CCCN1CCOCC1)[C@@H]32	111
C/C(=N\Nc1nc(C)cs1)c1cc2ccccc2o1	109

Requested read-out growth, target or system SR leukemia, entry `Cn1cc(-c2nonc2-c2c[nH]c3ccccc23)c2ccccc21`
11.6

Requested read-out growth, target or system SR leukemia, entry `CC(C)C[C@@H](C(=O)N[C@H](C(=O)OC1CCCC1)c1ccccc1)[C@H](O)C(=O)NO`
51.1

Requested read-out growth, target or system SR leukemia, entry `Clc1nccc2c(-c3csc(-c4c[nH]c5ccccc45)n3)c[nH]c12`
11.3

====

Test system: MCF7 breast
Experiment: NCI-60 one-dose screen, 48 h
Conditions: 10 µM unless noted
The panel holds about 83,000 compounds, 20% with a hit somewhere; the sample as a whole holds those more often. The source made the active and inactive calls. Rule for the calls: active = growth percent below 10; inactive = the rest.
Answer with one of the outcomes active, inactive

Observe how each entry below is paired with its result.
compound	group
CC1(C)C2CC=C(/C=N/NC(=O)C3CCC(=O)N3)C1C2 (centres undefined)	inactive
CCNC(=O)Oc1ccc(/C(=C(/C)Cc2ccc(OC)cc2)c2ccc(OCCN3CCCCCC3)cc2)cc1	inactive
O=c1ccc2nc(C(F)(F)F)nn(-c3ccccc3)c-2c1	active
COc1ccc(/C=C/C(=O)c2cc3c(N)c(C(=O)Nc4ccccc4C)sc3nc2C)cc1	active

Please let me know the test result on file for `O=C(O)c1cn(C2CC2)c2cc(N3CCN(C(=O)N/N=C/c4ccccc4)CC3)c(F)cc2c1=O` .
inactive

Please let me know the test result on file for `COc1ccc2c(c1)c(-c1nonc1-c1cn(C)c3ccc(OC)cc13)cn2C` .
inactive

Please let me know the test result on file for `COc1cc(/C=C2\C(=O)N(c3c(Cl)cccc3Cl)c3ccccc32)cc(OC)c1OCCCCCCn1c2ccccc2c(=O)c2ccccc21` .
inactive

Please let me know the test result on file for `COC(=O)c1nc(-c2ccccc2)oc1S(=O)(=O)N1CCC(C(N)=O)CC1` .
inactive

Please let me know the test result on file for CCN1C(=O)N(CC)C2C1NN=c1s/c(=C\c3ccccc3Br)c(=O)n12 (centres undefined) .
inactive

====

Test system: NCI-H522 lung
Experiment: NCI-60 one-dose screen, 48 h (100 = growth as untreated, 0 = no growth, -100 = all killed)
Settings: 10 µM unless noted
About 83,000 compounds went through this panel and 20% of them were active in at least one assay; those are over-represented in the sample as a whole.
Would you please tag the item class 1 when its growth is 70% or above, and class 0 when it is below?

Observe how each entry below is paired with its result.
compound	group
Cn1cc(-c2nn3cc(-c4ccccc4)nc3s2)c2ccccc21	class 0
CCCCCCCCNc1cc2c3c(c1)CCCN3CCC2	class 0
CCN1C(=O)N(CC)C2C1NN=C1SCC(=O)N12 (configuration not stated)	class 1
O=C(O)C1CN(c2cccc(Cl)c2)N(c2cccc(Cl)c2)C1=O (configuration not stated)	class 1
CCNCc1ccc(O)c2ncccc12	class 0
CC1CN=C(c2cccc(-c3ccc(-c4ccccc4)o3)c2)N1 (configuration not stated)	class 0
C=CC1(C)C(O[Si](C)(C)C(C)(C)C)CC2C3OC(=O)NC31c1cccc3c1[C@H](C(=O)N3C)C2(C)C (some centres not stated)	class 0
N/C(=N\c1nc2ccccc2s1)NC(=NC1CCCCC1)NC1CCCCC1	class 0

Given `C=C1C(=O)O[C@H]2[C@H]1CC/C(COC(=O)c1cc3cc(F)ccc3[nH]1)=C\CC[C@@]1(C)O[C@@H]21` , state whether its growth is at least 70%.
class 0

Given `COC(=O)c1nc(-c2ccccc2)oc1S(=O)(=O)N1CCC(C(N)=O)CC1` , state whether its growth is at least 70%.
class 0

Given CC12CCC(/C(=C/NNc3ccc([N+](=O)[O-])cc3[N+](=O)[O-])C1=O)C2(C)C (configuration not stated) , state whether its growth is at least 70%.
class 0

Given `O=C1/C=C/[C@@H](O)[C@@H]2C[C@@H](O)C[C@H]2/C=C/CCC[C@H](CCOCc2ccccc2)O1` , state whether its growth is at least 70%.
class 0

Given `COc1ccc2cc(Cn3cc[n+](Cc4ccc5ccccc5c4)c3)ccc2c1` , state whether its growth is at least 70%.
class 0

Given `COc1cc2c(/C=C3\C(=O)Nc4ccccc43)c(C(=O)O)[nH]c2cc1C` , state whether its growth is at least 70%.
class 1

Given CCOC(=O)C1=C(c2ccccc2)N=c2s/c(=C/c3ccc(Br)cc3)c(=O)n2C1c1ccc(O)cc1 (configuration not stated) , state whether its growth is at least 70%.
class 1

Given `CC(C)(CO)N(CCO)CCO` , state whether its growth is at least 70%.
class 1

Given CC1O[C@@H]2C[C@@](O)([C@H]1O)n1c3ccccc3c3c4c(c5c6ccccc6n2c5c31)C(=O)NC4=O (some centres not stated) , state whether its growth is at least 70%.
class 0

====

System: SNB-19 CNS
Assay: NCI-60 one-dose screen, 48 h (100 = growth as untreated, 0 = no growth, -100 = all killed)
Settings: 10 µM unless noted
About 83,000 compounds went through this panel and 20% of them were active in at least one assay; those are over-represented in the sample as a whole.
Parameter growth: see the listing below.
Use % as the unit, but write only the number.

Examples from the recorded data:
molecule	quantity_name	numeric_result
Cc1cc(N2CCN(C)CC2)nc(NCc2cc(Nc3ccnc4cc(Cl)ccc34)ccc2F)n1	growth	34.3
CCCCCCC(CCCC)COC(=O)c1ccc(Cl)cc1 (configuration not stated)	growth	109
C[C@@H]1O[C@@H](O[C@@H]2C[C@H](c3ccc4c(c3O)C(=O)C3=C(C4=O)[C@@]4(O)C(=O)C[C@](C)(O)C[C@@]4(O)C=C3)O[C@H](C)[C@H]2O)C[C@H](O)[C@@H]1O	growth	91.8
Cc1ccc(/C=C2\CN(C(=O)C(Cl)Cl)C/C(=C\c3ccc(C)cc3)C2=O)cc1	growth	-53.7
O=C(Nc1ncc(Cc2ccccc2Cl)s1)c1cccs1	growth	82.9

Item under review: `Cc1cscc(C)c1=S` . Reported growth?
100

Item under review: `COc1ccc(Nc2ncc(C(N)=O)c(NCCCNC(=O)C3CCC3)n2)cc1` . Reported growth?
75.5

Item under review: CCN1C(=O)N(CC)C2C1NN=C1SCC(=O)N12 (configuration not stated) . Reported growth?
97

Item under review: `CCCCCCCCNc1cc2c3c(c1)CCCN3CCC2` . Reported growth?
17.5

Item under review: `Cc1ncc(C(=O)Nc2ccc(CN3CCN(C)CC3)c(C(F)(F)F)c2)cc1C#Cc1cnc(N)c2cnccc12` . Reported growth?
23.1

Item under review: `CN1CCN(Cc2ccc(NC(=O)c3cncc(C#Cc4cncc5ncccc45)c3)cc2C(F)(F)F)CC1` . Reported growth?
46.7

Item under review: `CCN(CC)c1ccc(/C=N\NC(=O)c2cccc(Nc3ccnc(C(F)(F)F)c3)c2)c(O)c1` . Reported growth?
15.9
